- SYSTEM UNDER TEST: T1, Spindlin1 (aa: 50-262) (human)
- T1 construct: for the ITC of 'Spindlin1' alone the limits are not restated
- T1 sequence (chain, as listed by the source): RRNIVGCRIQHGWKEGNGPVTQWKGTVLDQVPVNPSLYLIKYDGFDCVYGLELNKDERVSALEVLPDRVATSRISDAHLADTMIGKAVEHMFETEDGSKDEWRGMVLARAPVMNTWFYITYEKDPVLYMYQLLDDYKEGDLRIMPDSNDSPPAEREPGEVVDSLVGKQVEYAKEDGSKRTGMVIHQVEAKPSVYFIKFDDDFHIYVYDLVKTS
- EXPERIMENT DESCRIPTION: ITC; 25 °C, MicroCal ITC200; 20 mM HEPES pH 7.5, 150 mM NaCl; 0.8 mM H3 peptide injected into 50 μM protein or complex in the sample cell
- TEST CONDITIONS: both partners purified
Ends that are not written are not given here. Me3 = trimethyl group on lysine (trimethyl-lysine)
RESULT TYPE: Kd

Look at this binder and give its reported Kd. ARTK(Me3)QTAR(asymmetric Me2)KSTG (histone H3 N-terminal tail, residues 1-12) [H3K4me3R8me2a peptide, H3 (1-12)] 170 nM
